assay: Absorption maxima (λmax) of chalcogenopyrylium dyes; type: physicochemical; details: CH2Cl2
observedProperty: Absorption maximum λmax (nm)
Write the value in nm as a bare number.

CC(C=Cc1cc(C(C)(C)C)[te+]c(C(C)(C)C)c1)=C1C=C(C(C)(C)C)[Se]C(C(C)(C)C)=C1	803
CC(=C1C=C(c2ccccc2)[Te]C(c2ccccc2)=C1)c1cc(-c2ccccc2)[te+]c(-c2ccccc2)c1	843
CC(C)(C)C1=CC(=CC=Cc2cc(C(C)(C)C)[te+]c(C(C)(C)C)c2)C=C(C(C)(C)C)[Te]1	830

With those in mind, consider the next compound.
Return reported Absorption maximum λmax; argument: CC(C)(C)C1=CC(=CC=Cc2cc(C(C)(C)C)[se+]c(C(C)(C)C)c2)C=C(C(C)(C)C)[Te]1.[Cl-] 786
